Test system: HeLa Kyoto;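 also: synchronized HeLa Kyoto cells, proteins quantified by TMT10plex mass spectrometry, three biological replicates, mitosis taken 0.5 h after nocodazole release, G1/S directly after double thymidine block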
Assay info: thermal stability score vs G1/S (z-score of summed log2 fold changes over temperatures); higher = more thermally stable than in G1/S
Condition details: cell cycle stage: mitosis
Readout label: thermal stability score
The reply should be a number, written without any unit.

Entry MATEGDVELELETETSGPERPPEKPRKHDSGAADLERVTDYAEEKEIQSSNLETAMSVIGDRRSREQKAKQEREKELAKVTIKKEDLELIMTEMEISRAAAERSLREHMGNVVEALIALTN [HYPK] ; thermal stability score = -8.21

Entry MAALAPLPPLPAQFKSIQHHLRTAQEHDKRDPVVAYYCRLYAMQTGMKIDSKTPECRKFLSKLMDQLEALKKQLGDNEAITQEIVGCAHLENYALKMFLYADNEDRAGRFHKNMIKSFYTASLLIDVITVFGELTDENVKHRKYARWKATYIHNCLKNGETPQAGPVGIEEDNDIEENEDAGAASLPTQPTQPSSSSTYDPSNMPSGNYTGIQIPPGAHAPANTPAEVPHSTGVASNTIQPTPQTIPAIDPALFNTISQGDVRLTPEDFARAQKYCKYAGSALQYEDVSTAVQNLQKALKLLTTGRE [VTA1] ; thermal stability score = -2.34

Entry MSVRVARVAWVRGLGASYRRGASSFPVPPPGAQGVAELLRDATGAEEEAPWAATERRMPGQCSVLLFPGQGSQVVGMGRGLLNYPRVRELYAAARRVLGYDLLELSLHGPQETLDRTVHCQPAIFVASLAAVEKLHHLQPSVIENCVAAAGFSVGEFAALVFAGAMEFAEGLYAVKIRAEAMQEASEAVPSGMLSVLGQPQSKFNFACLEAREHCKSLGIENPVCEVSNYLFPDCRVISGHQEALRFLQKNSSKFHFRRTRMLPVSGAFHTRLMEPAVEPLTQALKAVDIKKPLVSVYSNVHAHRYRHPGHIHKLLAQQLVSPVKWEQTMHAIYERKKGRGFPQTFEVGPGRQLGAILKSCNMQAWKSYSAVDVLQTLEHVDLDPQEPPR [MCAT] ; thermal stability score = -2.74

Entry MALCEAAGCGSALLWPRLLLFGDSITQFSFQQGGWGASLADRLVRKCDVLNRGFSGYNTRWAKIILPRLIRKGNSLDIPVAVTIFFGANDSALKDENPKQHIPLEEYAANLKSMVQYLKSVDIPENRVILITPTPLCETAWEEQCIIQGCKLNRLNSVVGEYANACLQVAQDCGTDVLDLWTLMQDSQDFSSYLSDGLHLSPKGNEFLFSHLWPLIEKKVSSLPLLLPYWRDVAEAKPELSLLGDGDH [IAH1] ; thermal stability score = -0.17
